The entries below come with measured MIC values attached.
Tested on: Fomitopsis dickinsii
Assay: Antifungal activity against Daedalea dickinsii IFO-4979 assessed as growth inhibition after 7 days by agar dilution method
Format: functional
Conditions: IFO-4979, 168 h

compound	MIC / mg/L
C[C@@H]1[C@H](O)[C@@H](C)/C=C/C=C/C=C/C=C/C=C/C=C/C=C/[C@H](O[C@@H]2O[C@H](C)[C@@H](O)[C@H](N)[C@@H]2O)C[C@@H]2O[C@](O)(C[C@@H](O)C[C@@H](O)[C@H](O)CC[C@@H](O)C[C@@H](O)CC(=O)O[C@H]1C)C[C@H](O)[C@H]2C(=O)O [AMPHOTERICIN B]	0.39
C=C(C)c1cccc(=O)c(O)c1 [BETA-DOLABRIN]	0.2
CC(C)c1ccc(O)c(=O)cc1 [GAMMA-THUJAPLICIN]	0.2
CC(C)c1cccc(=O)c(O)c1 [HINOKITIOL]	0.2

----------
System: Tyrophagus putrescentiae
Assay: Insecticidal activity against Tyrophagus putrescentiae assessed as mortality at 0.2 g/m2 after 24 hr by clip method relative to control
Type: functional
The following molecules are listed with their measured mortality values.
property_measured: mortality

> print(dat)
                                   molecule  result.value
1                     CC(C)c1ccc(O)c(=O)cc1          100%
2                     CC(C)c1cccc(=O)c(O)c1         33.6%
3  CCN(CC)C(=O)c1cccc(C)c1 [DIETHYLTOLUAMIDE]          4.5%
4                    C=C(C)c1cccc(=O)c(O)c1          100%

----------
Each entry below carries its recorded mortality.
System: Tyrophagus putrescentiae
Assay: Insecticidal activity against Tyrophagus putrescentiae assessed as mortality at 0.05 g/m2 after 24 hr by clip method relative to control
Assay type: functional
property_measured: mortality

> print(dat)
                                   molecule  property.measured  result.value
1                     CC(C)c1ccc(O)c(=O)cc1          mortality           66%
2                    C=C(C)c1cccc(=O)c(O)c1          mortality           91%
3  CCN(CC)C(=O)c1cccc(C)c1 [DIETHYLTOLUAMIDE]          mortality            0%
4                     CC(C)c1cccc(=O)c(O)c1          mortality            0%

----------
Tested on: Coptotermes formosanus
Test: Insecticidal activity against Coptotermes formosanus assessed as mortality after 24 to 48 hr
Assay type: functional
property_measured: LC50

> print(dat)
                    chemical.string  result.value
1             CC(C)c1ccc(O)c(=O)cc1     0.05 g/m2
2             CC(C)c1cccc(=O)c(O)c1     0.07 g/m2
3  CCOP(=S)(OCC)Oc1nc(Cl)c(Cl)cc1Cl  0.00016 g/m2
4            C=C(C)c1cccc(=O)c(O)c1     0.05 g/m2

----------
Tested on: Tyrophagus putrescentiae
Experiment: Insecticidal activity against Tyrophagus putrescentiae assessed as mortality at 1 g/m2 after 24 hr by clip method relative to control
Type: functional
mortality values, listed per item
property_measured: mortality

> print(dat)
                                   compound               system.name  property.measured  result.value
1        CC(C)c1cccc(=O)c(O)c1 [HINOKITIOL]  Tyrophagus putrescentiae          mortality          100%
2  CCN(CC)C(=O)c1cccc(C)c1 [DIETHYLTOLUAMIDE]  Tyrophagus putrescentiae          mortality         67.1%
3  CC(C)c1ccc(O)c(=O)cc1 [GAMMA-THUJAPLICIN]  Tyrophagus putrescentiae          mortality          100%
4    C=C(C)c1cccc(=O)c(O)c1 [BETA-DOLABRIN]  Tyrophagus putrescentiae          mortality          100%
